Each recorded value in this set is attributed to ChEMBL document CHEMBL3988442.

- TGT: AMP-activated protein kinase, AMPK (Homo sapiens) (UniProt P54646+O43741+P54619+Q9UGJ0+Q9Y478+Q13131+Q9UGI9)
- ASSAY EXPLANATION: AMP-dependent Kinase enzyme assay. An in vitro enzyme assay that detects ADP turnover that is directly proportional to AMPK activity. This uses naive AMPK that is activated during the assay with MK-8722
- Type: functional
- Set-up: scale not given: direction of the effect not stated beside the values
- SETUP CONDITIONS: 30 µM
METRIC NAME: Percent Effect (%)

Cc1c(C)n(Cc2ccccn2)c2nc3c(c(N)c12)CCCC3 | 15.5
Cc1nc(C)n(CC2CCCCN2CCS(C)(=O)=O)n1 (centres undefined) | 0.489
CCCc1cc(C(=O)N(C)Cc2cccc3ncccc23)n(C)n1 | 2.46
Cc1ncsc1C(=O)Nc1cccc(OCC(F)F)n1 | 10.6
COCCNC(=O)[C@@H]1CC[C@@H]2[C@@H](CCN2Cc2cnn(C)c2)O1 | -7.81
CCN(Cc1cccc(Cl)c1)Cn1nc(C)c2c(C)onc2c1=O | -4.63
CS(=O)(=O)Cc1ccc(CNC(=O)c2cccnc2O)cc1 | 8.18
Cn1ccc2c(C(=O)N3CCC(C(N)=O)CC3)cccc21 | 2.71
COc1cc(N2C[C@@H]3COC[C@]3(COc3ccc(C#N)cn3)C2)ncn1 | 2.34
CCCc1n[nH]c(C2CN(CCCOc3ccccc3)CCO2)n1 (centres undefined) | 7.41
CNC(=O)c1ccc(CN2CCC(N(C)Cc3noc(C)n3)C2)cc1 (centres undefined) | -3.53
Cc1noc([C@@]23CCO[C@@H]2CCN(CC2CCOCC2)C3)n1 | 7.01
Cc1cc(C)n(CC2CCCN2C(=O)CCc2cscn2)n1 (centres undefined) | 7.92
CC(C)c1nc(C2CCCN(C(=O)CCn3ccnc3)C2)no1 (centres undefined) | -7.28
Cn1cnnc1C1CCCN(C(=O)NCc2ccc3c(c2)OCO3)C1 (centres undefined) | -2.19
CC(C)N(C)C(=O)C1=NOC2(CCN(C(=O)c3ccc(Cl)cc3)C2)C1 (centres undefined) | 1.89
O=c1[nH]c2c(c(=O)n1C1CCCCC1)CCC2Nc1ccccc1Cl (centres undefined) | -9.22
O=C(c1cc2c(s1)CCC2)N1CCCCC1Cn1cccn1 (centres undefined) | -1.14
CSCC[C@H](N)C(=O)NCc1cc2n(n1)CCCN(C1CCCCC1)C2 | -5.04
Cc1cc(CN(C)C(=O)C2CCS(=O)(=O)C2)no1 (centres undefined) | -1.29
CS(=O)(=O)N1Cc2nccn2CC(Cn2ncccc2=O)C1 (centres undefined) | 3.55
Cc1nn(CC(C)C)c(N(C)C)c1CNCc1cccc2c1OCO2 | -13.1
CCOCCCC(=O)NCCC(=O)N1CCN(c2ccccn2)CC1 | 4.17
Cc1ccc(N2CC3(COCCN(Cc4nccs4)C3)OCC2=O)s1 (centres undefined) | -1.49
NC(=O)c1ccc(N2CCCCC2)c(NC(=O)c2cncc(Br)c2)c1 | 10.4
CNC(=O)Nc1cc(-c2ccccc2C)nn1CCO | -1.72
CS(=O)(=O)NCC1CCCN(C(=O)Nc2cccnc2N2CCCC2)C1 (centres undefined) | -26.3
CNS(=O)(=O)c1ccc(CNC(=O)NCC2CCOC2)cc1 (centres undefined) | 0.491
CC(C)(C)c1nnc(CN2CCCC(c3cc(C(N)=O)[nH]n3)C2)o1 (centres undefined) | -2.58
Cc1nc(CN(Cc2ccccc2)C2CCS(=O)(=O)C2)oc1C (centres undefined) | -3.46
CCOc1ccccc1-c1noc(CN2CC(n3cccn3)C2)n1 | 2.37
CN(C)CC1CN(c2ncnc3[nH]ccc23)CCO1 (centres undefined) | 22
Cc1cc(C)n(CCCNC(=O)C(C)NC(=O)c2ccccc2Cl)n1 (centres undefined) | 4.16
COC(=O)CCN1CCCC1c1ccccc1Cl (centres undefined) | -1.16
